tested on: IMR-32; assay: Antiproliferative activity against human IMR-32 cells assessed as inhibition of cell growth incubated for 48 hrs by MTT assay; type: functional, cell-based; conditions: IMR-32, 48 h
PARAMETER: IC50

Ask: I would be grateful if you could share the reported IC50 for COCCSC1=C(C)C(=O)c2ccccc2C1=O .
Reply: 2430 nM

---

test system: MCF7; experiment: Antiproliferative activity against human MCF7 cells assessed as inhibition of cell growth incubated for 72 hrs by MTT assay; assay type: functional, cell-based; conditions: MCF7, 72 h
pIC50 listing for selected compounds.
Reminder that pIC50 means the negative base-10 logarithm of the concentration expressed in mol/L.

O=C1OCC2=C1C(c1ccc(Oc3ccc(F)cc3)cc1)C1=C(N2)C(=O)c2ccccc2C1=O (centres undefined) :: 5.67
COc1ccc(N(Cc2cn(S(=O)(=O)c3ccc(C)cc3)nn2)C2=CC(=O)c3ccccc3C2=O)cc1 :: 6.24
O=C1C2=C(C(=O)c3ccccc31)C(CCc1ccccc1)c1sc(=O)[nH]c1S2 (centres undefined) :: 5.05

Next item in the queue.
Ask: Reported pIC50 for Cc1ccc(Cn2cc(CNC3=CC(=O)c4ccccc4C3=O)nn2)cc1 : what is it?
Reply: 4.98

---

test system: HepG2; assay: Antiproliferative activity against human HepG2 cells assessed as inhibition of cell growth incubated for 48 hrs by MTT assay; type: functional, cell-based; conditions: HepG2, 48 h
PARAMETER: IC50 (µM)
Your answer should be a plain number; it is taken to be in µM.

Ask: So what does the record say about IC50 for COc1ccc(C2C3=C(Nc4nc(SC)nc(N)c42)C(=O)c2ccccc2C3=O)cc1Br (stereo unspecified) ?
Reply: 5.91

---

tested on: SiHa; assay: Antiproliferative activity against human SiHa cells assessed as inhibition of cell growth by crystal violet staining based spectrophotometric assay; assay type: functional
PARAMETER: IC50 (µM)
Lab book: enter the figure in µM, no units written.

Ask: Requested read-out: IC50. Entry: O=C1C(Cl)=C(NC(Cc2ccc(O)cc2)C(=O)O)C(=O)c2ccccc21 (stereo unspecified)
Reply: 6.83

---

system: MUGMel2; assay: Antiproliferative activity against human MUG-Mel2 cells assessed as inhibition of cell growth incubated for 72 hrs by XTT assay; format: functional, cell-based; conditions: MUGMel2, 72 h
PARAMETER: pIC50
Units for pIC50: none; it is -log10 of a concentration expressed in mol/L.

Ask: Using the record for CC(C)=C/C=C/C1=C(C(CC=C(C)C)C2=CC(=O)c3c(O)ccc(O)c3C2=O)C(=O)c2c(O)ccc(O)c2C1=O (stereo unspecified) , report its pIC50.
Reply: 6.15

---

test system: MCF7; assay: Antiproliferative activity against human MCF7 cells; format: functional, cell-based
PARAMETER: pIC50
// pIC50 is dimensionless: -log10 of concentration (M)

Ask: // returns reported pIC50 for input O=C(/C=C/C=C/c1ccc2c(c1)OCO2)OC1=CC(=O)c2ccccc2C1=O
Reply: 5.42

---

tested on: MCF7; assay: Cytotoxicity against human MCF7 cells assessed as reduction in cell viability incubated for 72 hrs by MTT assay; assay type: functional, cell-based; settings: MCF7, 72 h
PARAMETER: IC50 (nM)
Please state the figure in nM; there is no need to write the unit.

Ask: Which IC50 reading was recorded for the molecule CCOC(=O)CCCCCNC1=C(F)C(=O)c2c(F)c(F)c(F)c(F)c2C1=O ?
Reply: 1400
